Hey, just so you know, these numbers are from patent US10597674B2.

System: E. coli cells expressing an HPPD polypeptide
Experiment: Brown color bioassay in liquid culture, residual brown color formation (BCF), OD440 after 96 hours
Format: cell-based
Settings: brown color formation with Cmpd. 1 (1000 μM) relative to without, after 96 hours
Method: In an additional experiment, mutant HPPD polypeptides were analyzed using the principle of a colorimetric brown color assay (as, for example, described in U.S. Pat. No. 6,768,044). Bacterial cells expressing the HPPD polypeptides according to this invention were assayed in 96 well plate format (Nunc® 96 DeepWell™ plate, Sigma-Aldrich, St. Louis, USA) for HPPD polypeptides with improved HPPD inhibitor herbicide tolerance. […]
METRIC NAME: Residual BCF OD440nm [%] (%)
Use % as the unit, but write only the number.

Recorded Residual BCF OD440nm [%] of 14 (protein, mutant HPPD polypeptide) MADLYENPMGLMGFEFIEFASPTPGTLEPIFEIMGFTKVATHRSKNVHLYRQGEINLILNNEPNSIASYFAAEHGPSVCGMAFRVKDSQKAYNRALELGAQPIHIDTGPMELNLPAIKGIGGAPLYLIDRFGEGSSIYDIDFVYLEGVERNPVGAGLKVIDHLTHNVYRGRMVYWANFYEKLFNFREARYFDIKGEYTGLTSKAMSAPDGMIRIPLNEESSKGAGQIEEFLMQFNGEGIQHVAFLTDDLVKTWDALKKIGMRFMTAPPDTYYEMLEGRLPDHGEPVDQLQARGILLDGSSVEGDKRLLLQIFSETLMGPVFFEFIQRKGHDGFGPDSFKVLFESVERDQVRRGVLTAD , please.
63

Recorded Residual BCF OD440nm [%] of 10 (protein, mutant HPPD polypeptide) MADLYENPMGLMGFEFIEFASPTPGTLEPIFEIMGFTKVATHRSKNVHLYRQGEINLILNNEPNSIASYFAAEHGPSVCGMAFRVKDSQKAYNRALELGAQPIHIDTGPMELNLPAIKGIGGAPLYLIDRFGEGSSIYDIDFVYLEGVERNPVGAGLKVIDHLTHNVYRGRMVYWANFYEKLFNFREARYFDIKGEYTGLTSKAMSAPDGMIRIPLNEESSKGAGQIEEFLMQFNGEGIQHVAFLTDDLVKTWDALKKIGMRFMTAPPDTYYEMLEGRLPDHGEPVDQLQARGILLDGSSVEGDKRLLLQIFSETLMGPVFFEFIQRKGDDGFGPDSFKVLFESVERDQVRRGVLTAD , please.
65
